Where these numbers come from: PubChem BioAssay (Tox21)

# measured_target: Cytochrome P450 2C9 (Homo sapiens) (UniProt P11712)
# Sequence (P11712 whole entry, looked up): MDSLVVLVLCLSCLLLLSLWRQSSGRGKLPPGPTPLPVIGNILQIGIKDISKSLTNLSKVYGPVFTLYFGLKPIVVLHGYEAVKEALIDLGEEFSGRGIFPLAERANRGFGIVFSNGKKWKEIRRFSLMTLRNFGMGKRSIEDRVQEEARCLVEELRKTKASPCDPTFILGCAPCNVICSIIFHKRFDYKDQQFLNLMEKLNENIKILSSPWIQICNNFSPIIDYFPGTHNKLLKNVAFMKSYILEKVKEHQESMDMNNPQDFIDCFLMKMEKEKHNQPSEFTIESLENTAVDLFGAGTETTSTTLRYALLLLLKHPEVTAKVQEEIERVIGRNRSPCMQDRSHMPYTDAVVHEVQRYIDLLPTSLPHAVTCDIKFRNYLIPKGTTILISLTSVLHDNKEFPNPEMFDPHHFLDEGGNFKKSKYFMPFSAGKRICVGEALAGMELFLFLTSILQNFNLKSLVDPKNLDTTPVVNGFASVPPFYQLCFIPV
# protocol_description: Cytochrome P450 Family 2 Subfamily C Member 9 (CYP2C9) small molecule antagonists: luciferase reporter qHTS assay (AID 1671198); note: nearly all actives have a fitted effect of over 50% in size
# test_settings: P450-Glo CYP2C9 enzyme assay, luciferin luminescence; series mostly up to 115 µM
# Excerpt: U.S. Tox21 Program National Center for Advancing Translational Sciences [NCATS] U.S. Environmental Protection Agency [EPA] National Institutes of Environmental Health Sciences [NIEHS] National Toxicology Program [NTP] U.S. Food and Drug Administration [FDA] […] The luciferin products formed are detected with a luciferin detection reagent, and the amount of light produced is proportional to CYP activity. […]
Records with an inconclusive call do not appear. Active and inactive are the calls of the source. Calls come from the whole dose curve; as a rule, active = well fitted inhibition curve with a large enough effect in the repeat runs; inconclusive = weak or mixed curves; inactive = no such curve, though single readings can be large or run the other way.
Output constraint: value belongs to Yes (active), No (inactive)

For orientation, consider the following solved cases.
molecule	measured_target	class_name
NS(=O)(=O)c1cc(C(=O)O)cc(N2CCCC2)c1Oc1ccccc1	Cytochrome P450 2C9 (Homo sapiens) (UniProt P11712)	No
CCCCCCOC(=O)CCCCC(=O)OCCCCCC	Cytochrome P450 2C9 (Homo sapiens) (UniProt P11712)	Yes

Q: What is the recorded call for this molecule in the test? O=C1CCCN1C1CCCCC1
Result: No

Q: What is the recorded call for this molecule in the test? CN1CC(=O)NC1=N
Result: No

Q: What is the recorded call for this molecule in the test? CCCCC(CC)COC(=O)c1ccccc1O (stereo unspecified)
Result: No

Q: What is the recorded call for this molecule in the test? CN1CCN(c2cc3c(cc2F)c(=O)c(C(=O)O)cn3-c2ccc(F)cc2)CC1
Result: No

###

Recorded max response values for a group of molecules are listed next.
# protocol_description: qHTS RealTime-Glo MT Cell Viability Assay in HEK293 cells - 40 hour (AID 1224874); note: % is set by controls: 0 for no effect and ±100 for the full control effect; nearly all actives have a fitted effect of over 50% in size
# test_settings: RealTime-Glo luminescence; active compounds read low
Results filed as inconclusive are left out.
Your answer is read as %, so omit the unit and give the number.

Q: # return recorded max response for input NC(=O)c1ccc([N+](=O)[O-])cc1
Result: 2.32

Q: # return recorded max response for input NS(=O)(=O)c1ccccc1Cl
Result: -11.8

Q: # return recorded max response for input CC/C=C\CCOC(C)=O
Result: -1.39

Q: # return recorded max response for input O=C(O)Cc1ccc(CCNS(=O)(=O)c2ccc(Cl)cc2)cc1
Result: -1.15

Q: # return recorded max response for input CCCCCSCCCCC
Result: -8.65

Q: # return recorded max response for input N=c1nc(N2CCCCC2)cc(N)n1O
Result: -2.32

Q: # return recorded max response for input NS(=O)(=O)c1cc2c(cc1Cl)NC(C1CC3C=CC1C3)NS2(=O)=O (configuration not stated)
Result: 11.9

###

# protocol_description: qHTS assay to identify small molecule agonists of the AP-1 signaling pathway (AID 1159526); note: % is set by controls: 0 for no effect and ±100 for the full control effect
# test_settings: ME-180 (cervical carcinoma) AP-1-bla reporter, beta-lactamase FRET ratio, 5 h; series mostly up to 35.3 µM
Inconclusive results are not listed. The source made the active and inactive calls. The call rests on the fitted dose curve.

smi	activation
CCCN(CCC)CCc1cccc2c1CC(=O)N2	inactive
O=C(O)c1ccccc1OP(=O)(O)O	inactive
CCN(CC)CCOCCOC(=O)C1(c2ccccc2)CCCC1	inactive

###

# protocol_description: qHTS RealTime-Glo MT Cell Viability Assay in HEK293 cells - 40 hour (AID 1224874); note: % is set by controls: 0 for no effect and ±100 for the full control effect; nearly all actives have a fitted effect of over 50% in size
# test_settings: RealTime-Glo luminescence; active compounds read low
Inconclusive results are not listed.
measured_endpoint: max response (%)
Your answer is read as %, so omit the unit and give the number.

compound	max response / %
CCN(Cc1ccncc1)C(=O)C(CO)c1ccccc1 (stereo not drawn)	5.99
CC(C)OC(=O)c1ccccc1	0.492

Switching to the query record.
Q: # return recorded max response for input C[C@](N)(Cc1ccc(O)cc1)C(=O)O
Result: 0.763
